B1: glmS ribozyme (parent)
chain: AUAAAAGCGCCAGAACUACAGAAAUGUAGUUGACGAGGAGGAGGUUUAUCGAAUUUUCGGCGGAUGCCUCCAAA

Variants of: B1
Assay remarks: self-cleavage kobs at 640 uM GlcN6P; higher = faster cleavage; RNA array
Measurement conditions: with glucosamine-6-phosphate
Fewer inactive variants are shown than the library holds.
Property: self-cleavage kobs at 640 uM GlcN6P

Example entries begin here.
Mutant name: U55A U56A
self-cleavage kobs at 640 uM GlcN6P: 0.00306 s⁻¹

Mutant name: G29U U54C
self-cleavage kobs at 640 uM GlcN6P: 0.00146 s⁻¹

Mutant name: C10U G37C
self-cleavage kobs at 640 uM GlcN6P: < 1e-05 s⁻¹

Mutant name: C10G C61A
self-cleavage kobs at 640 uM GlcN6P: < 1e-05 s⁻¹

Mutant name: G60U U69G
self-cleavage kobs at 640 uM GlcN6P: < 1e-05 s⁻¹

Query string: Return reported self-cleavage kobs at 640 uM GlcN6P; argument: G29U U47A A64U
Result string: < 1e-05 s⁻¹

Query string: # repeat for C50G U69G
Result string: 0.000151 s⁻¹
